As shown below, each of these compounds has a reported Bliss excess value.
Tested on: A3-KAW (B-Cell Non-Hodgkin's Lymphoma)
methodDescription: Bliss excess, mean over the matrix (fraction); higher = more synergy

- compound: "CN(C)CCCOc1ccc(-c2ccc3ncc4c(c3c2)n(C2CCOCC2)c(=O)n4C)cn1 [AZD0156] + CCN(CCO)CCCOc1ccc2c(Nc3cc(CC(=O)Nc4cccc(F)c4)[nH]n3)ncnc2c1 [AZD2811] (first compound max 1 µM, 7x7, partner max 1 µM)"
  Bliss excess: 0.121
- compound: "CC(=O)Nc1cccc(-n2c(=O)n(C3CC3)c(=O)c3c(Nc4ccc(I)cc4F)n(C)c(=O)c(C)c32)c1 [Trametinib] + Cc1nc(-c2cn3c(n2)-c2ccc(-c4cnn(C(C)(C)C(N)=O)c4)cc2OCC3)n(C(C)C)n1 [Taselisib] (first compound max 1 µM, 7x7, partner max 10 µM)"
  Bliss excess: 0.173

---

System: A549 (Lung Adenocarcinoma)
methodDescription: Bliss excess, mean over the matrix (fraction); higher = more synergy
measureName: Bliss excess

- compound: "NC1(C(=O)N[C@@H](CCO)c2ccc(Cl)cc2)CCN(c2ncnc3[nH]ccc23)CC1 [Capivasertib] + Cn1cnc2c(F)c(Nc3ccc(Br)cc3Cl)c(C(=O)NOCCO)cc21 [Selumetinib] (first compound max 10 µM, 7x7, partner max 10 µM)"
  recordedMeasurement: 0.0052
- compound: "CC1(C)CCC(CN2CCN(c3ccc(C(=O)NS(=O)(=O)c4ccc(NCC5CCOCC5)c([N+](=O)[O-])c4)c(Oc4cnc5[nH]ccc5c4)c3)CC2)=C(c2ccc(Cl)cc2)C1 [Venetoclax] + CN(C)CCCOc1ccc(-c2ccc3ncc4c(c3c2)n(C2CCOCC2)c(=O)n4C)cn1 [AZD0156] (first compound max 1 µM, 7x7, partner max 1 µM)"
  recordedMeasurement: -0.0586
- compound: "CCN(CCO)CCCOc1ccc2c(Nc3cc(CC(=O)Nc4cccc(F)c4)[nH]n3)ncnc2c1 [AZD2811] + O=C(c1cc(Cc2n[nH]c(=O)c3ccccc23)ccc1F)N1CCN(C(=O)C2CC2)CC1 [Olaparib] (first compound max 1 µM, 7x7, partner max 10 µM)"
  recordedMeasurement: -0.0061
- compound: "CN(C)CCCOc1ccc(-c2ccc3ncc4c(c3c2)n(C2CCOCC2)c(=O)n4C)cn1 [AZD0156] + C=CCn1c(=O)c2cnc(Nc3ccc(N4CCN(C)CC4)cc3)nc2n1-c1cccc(C(C)(C)O)n1 [AZD1775] (first compound max 1 µM, partner max 1 µM)"
  recordedMeasurement: -0.0807
- compound: "CN(CCO)CC[C@H](CSc1ccccc1)Nc1ccc(S(=O)(=O)NC(=O)c2ccc(N3CCC([C@@H](O)c4ccccc4-c4ccc(Cl)cc4)CC3)cc2)cc1S(=O)(=O)C(F)(F)F [AZD4320] + Cn1cnc2c(F)c(Nc3ccc(Br)cc3Cl)c(C(=O)NOCCO)cc21 [Selumetinib] (first compound max 1 µM, 7x7, partner max 3 µM)"
  recordedMeasurement: 0.0226

---

Tested on: TT (Thyroid Gland Carcinoma)
methodDescription: Bliss excess, mean over the matrix (fraction); higher = more synergy

- compound: "CC1(C)CCC(CN2CCN(c3ccc(C(=O)NS(=O)(=O)c4ccc(NCC5CCOCC5)c([N+](=O)[O-])c4)c(Oc4cnc5[nH]ccc5c4)c3)CC2)=C(c2ccc(Cl)cc2)C1 [Venetoclax] + Cc1cc2ncnn2cc1Nc1ncc2c(n1)n(C1CCOCC1)c(=O)n2C [AZD7648] (first compound max 1 µM, 7x7, partner max 10 µM)"
  assayedSystem: "TT (Thyroid Gland Carcinoma)"
  Bliss excess: -0.0161
- compound: "CC1(C)CCC(CN2CCN(c3ccc(C(=O)NS(=O)(=O)c4ccc(NCC5CCOCC5)c([N+](=O)[O-])c4)c(Oc4cnc5[nH]ccc5c4)c3)CC2)=C(c2ccc(Cl)cc2)C1 [Venetoclax] + C[C@@H]1COCCN1C2=NC(=NC(=C2)C3(CC3)[S@](=N)(=O)C)C4=C5C=CNC5=NC=C4 [AZD6738] (first compound max 1 µM, 7x7, partner max 10 µM)"
  assayedSystem: "TT (Thyroid Gland Carcinoma)"
  Bliss excess: -0.0387
- compound: "CS(=O)(=O)CCNCc1ccc(-c2ccc3ncnc(Nc4ccc(OCc5cccc(F)c5)c(Cl)c4)c3c2)o1 [Lapatinib] + C[C@@H](Oc1cc(-c2cnn(C3CCNCC3)c2)cnc1N)c1c(Cl)ccc(F)c1Cl [Crizotinib] (first compound max 10 µM, 7x7, partner max 10 µM)"
  assayedSystem: "TT (Thyroid Gland Carcinoma)"
  Bliss excess: -0.002
- compound: "CN(CCO)CC[C@H](CSc1ccccc1)Nc1ccc(S(=O)(=O)NC(=O)c2ccc(N3CCC([C@@H](O)c4ccccc4-c4ccc(Cl)cc4)CC3)cc2)cc1S(=O)(=O)C(F)(F)F [AZD4320] + CN(C)CCCOc1ccc(-c2ccc3ncc4c(c3c2)n(C2CCOCC2)c(=O)n4C)cn1 [AZD0156] (first compound max 1 µM, 7x7, partner max 1 µM)"
  assayedSystem: "TT (Thyroid Gland Carcinoma)"
  Bliss excess: -0.0778
- compound: "COc1cccc(OCCCN)c1-c1cc(Nc2cnc(C#N)cn2)n[nH]1 [Prexasertib] + Cc1cc2ncnn2cc1Nc1ncc2c(n1)n(C1CCOCC1)c(=O)n2C [AZD7648] (first compound max 1 µM, 7x7, partner max 10 µM)"
  assayedSystem: "TT (Thyroid Gland Carcinoma)"
  Bliss excess: -0.0144
- compound: "Cn1cnc2c(F)c(Nc3ccc(Br)cc3Cl)c(C(=O)NOCCO)cc21 [Selumetinib] + CCN(CCO)CCCOc1ccc2c(Nc3cc(CC(=O)Nc4cccc(F)c4)[nH]n3)ncnc2c1 [AZD2811] (first compound max 10 µM, 7x7, partner max 1 µM)"
  assayedSystem: "TT (Thyroid Gland Carcinoma)"
  Bliss excess: -0.0472
- compound: "CC(=O)c1c(C)c2cnc(Nc3ccc(N4CCNCC4)cn3)nc2n(C2CCCC2)c1=O [Palbociclib] + Cn1cnc2c(F)c(Nc3ccc(Br)cc3Cl)c(C(=O)NOCCO)cc21 [Selumetinib] (first compound max 10 µM, 7x7, partner max 10 µM)"
  assayedSystem: "TT (Thyroid Gland Carcinoma)"
  Bliss excess: 0.0418

---

Tested on: PANC-10-05 (Pancreatic Carcinoma)
methodDescription: combination Emax (second highest fraction inhibited in the dose matrix, 72 h); higher = more inhibition; extreme values may be limits of the assay

- compound: "C=CCn1c(=O)c2cnc(Nc3ccc(N4CCN(C)CC4)cc3)nc2n1-c1cccc(C(C)(C)O)n1 [AZD1775] + Nc1ccn([C@@H]2O[C@H](CO)[C@@H](O)C2(F)F)c(=O)n1 [Gemcitabine] (first compound max 1 µM, partner max 0.3 µM)"
  combination Emax: 0.631
- compound: "Cc1c2c(nn1C)CSCc1cc(n(C)n1)CSc1cc(c3ccccc3c1)OCCCc1c(C(=O)O)n(C)c3c-2c(Cl)ccc13 [AZD5991] + C=CCn1c(=O)c2cnc(Nc3ccc(N4CCN(C)CC4)cc3)nc2n1-c1cccc(C(C)(C)O)n1 [AZD1775] (first compound max 1 µM, partner max 1 µM)"
  combination Emax: 0.573
- compound: "CN(C)CCCOc1ccc(-c2ccc3ncc4c(c3c2)n(C2CCOCC2)c(=O)n4C)cn1 [AZD0156] + C=CCn1c(=O)c2cnc(Nc3ccc(N4CCN(C)CC4)cc3)nc2n1-c1cccc(C(C)(C)O)n1 [AZD1775] (first compound max 1 µM, partner max 1 µM)"
  combination Emax: 0.361
- compound: "CC(=O)c1c(C)c2cnc(Nc3ccc(N4CCNCC4)cn3)nc2n(C2CCCC2)c1=O [Palbociclib] + CC1(C)CCC(CN2CCN(c3ccc(C(=O)NS(=O)(=O)c4ccc(NCC5CCOCC5)c([N+](=O)[O-])c4)c(Oc4cnc5[nH]ccc5c4)c3)CC2)=C(c2ccc(Cl)cc2)C1 [Venetoclax] (first compound max 10 µM, 7x7, partner max 1 µM)"
  combination Emax: 0.275

---

Tested on: OS-RC-2 (Kidney Carcinoma)
methodDescription: Bliss excess, mean over the matrix (fraction); higher = more synergy
As shown below, each of these molecules has a reported Bliss excess value.

- molecule: "CN(C)CCCOc1ccc(-c2ccc3ncc4c(c3c2)n(C2CCOCC2)c(=O)n4C)cn1 [AZD0156] + C[C@@H]1COCCN1C2=NC(=NC(=C2)C3(CC3)[S@](=N)(=O)C)C4=C5C=CNC5=NC=C4 [AZD6738] (first compound max 1 µM, 7x7, partner max 10 µM)"
  Bliss excess: -0.0419
- molecule: "Cc1cc2ncnn2cc1Nc1ncc2c(n1)n(C1CCOCC1)c(=O)n2C [AZD7648] + O=C(c1cc(Cc2n[nH]c(=O)c3ccccc23)ccc1F)N1CCN(C(=O)C2CC2)CC1 [Olaparib] (first compound max 10 µM, 7x7, partner max 10 µM)"
  Bliss excess: -0.0486
- molecule: "CN(CCO)CC[C@H](CSc1ccccc1)Nc1ccc(S(=O)(=O)NC(=O)c2ccc(N3CCC([C@@H](O)c4ccccc4-c4ccc(Cl)cc4)CC3)cc2)cc1S(=O)(=O)C(F)(F)F [AZD4320] + Cc1cc2ncnn2cc1Nc1ncc2c(n1)n(C1CCOCC1)c(=O)n2C [AZD7648] (first compound max 1 µM, 7x7, partner max 10 µM)"
  Bliss excess: -0.0524
